Data provenance is ChEMBL document CHEMBL5303573.

experiment: The drug is tested on Clostridium sporogenes strain: ATCC15579 for biotransformation. The drug concentrations were measured before and after a 12-h incubation by liquid-chromatography-coupled mass spectrometry (LC–MS); details: 2 µM
readout.kind: Bacterial Biotransformation

Guide cases for Bacterial Biotransformation, answers given:
[[record]]
compound = "N=C(N)NC(=O)Cc1c(Cl)cccc1Cl"
experimental_value = "Compound NOT metabolized"

[[record]]
compound = "COc1ccc2c(c1)c(CC(=O)O)c(C)n2C(=O)c1ccc(Cl)cc1"
experimental_value = "Compound NOT metabolized"

[[record]]
compound = "C[C@@H](c1ncncc1F)[C@](O)(Cn1cncn1)c1ccc(F)cc1F"
experimental_value = "Compound NOT metabolized"

[[record]]
compound = "CC(=O)Nc1ccc(OC(C)=O)cc1 [DIACETAMATE]"
experimental_value = "Compound metabolized"

[[record]]
compound = "COc1ccc(C(CN(C)C)C2(O)CCCCC2)cc1 (stereo not drawn)"
experimental_value = "Compound NOT metabolized"


# get_value(readout='Bacterial Biotransformation', item= OCCN(CCO)c1nc(N2CCCCC2)c2nc(N(CCO)CCO)nc(N3CCCCC3)c2n1 )
Compound metabolized

Return reported Bacterial Biotransformation; argument: CC1OC(OC2C(O)CC(OC3C(O)CC(OC4CCC5(C)C(CCC6C5CCC5(C)C(C7=CC(=O)OC7)CCC65O)C4)OC3C)OC2C)CC(O)C1O (stereo not drawn)
Compound metabolized

I would be grateful if you could share the reported Bacterial Biotransformation for CC(=O)CCCCn1c(=O)c2c(ncn2C)n(C)c1=O .
Compound NOT metabolized

----------
experiment: The drug is tested on Bacteroides coprophilus strain: DSM18228 for biotransformation. The drug concentrations were measured before and after a 12-h incubation by liquid-chromatography-coupled mass spectrometry (LC–MS); settings: 2 µM
readout.kind: Bacterial Biotransformation

Solved entries:
[[record]]
molecule = "CCN(CC)C(=O)C1(c2ccccc2)CC1CN (stereo not given)"
experimental_value = "Compound NOT metabolized"

[[record]]
molecule = "CC(=O)O[C@]1(C(C)=O)CC[C@H]2[C@@H]3C=C(C)C4=CC(=O)CC[C@]4(C)[C@H]3CC[C@@]21C [MEGESTROL ACETATE]"
experimental_value = "Compound NOT metabolized"

[[record]]
molecule = "CCCC(=O)Nc1ccc(OCC(O)CNC(C)C)c(C(C)=O)c1 (stereo not given)"
experimental_value = "Compound NOT metabolized"

[[record]]
molecule = "CC(=O)SCC(Cc1ccccc1)C(=O)NCC(=O)OCc1ccccc1 (stereo not given)"
experimental_value = "Compound metabolized"

[[record]]
molecule = "COC(=O)[C@H]1[C@H]2C[C@@H]3c4[nH]c5cc(OC)ccc5c4CCN3C[C@H]2C[C@@H](OC(=O)c2cc(OC)c(OC)c(OC)c2)[C@@H]1OC"
experimental_value = "Compound NOT metabolized"

[[record]]
molecule = "O=C([O-])C[C@H](O)C[C@H](O)/C=C/c1c(C2CC2)nc2ccccc2c1-c1ccc(F)cc1.O=C([O-])C[C@H](O)C[C@H](O)/C=C/c1c(C2CC2)nc2ccccc2c1-c1ccc(F)cc1.[Ca+2]"
experimental_value = "Compound NOT metabolized"


Find the recorded Bacterial Biotransformation belonging to CCOC(=O)[C@H](CCc1ccccc1)N[C@@H](C)C(=O)N1[C@H](C(=O)O)C[C@@H]2CCC[C@@H]21 and report it.
Compound NOT metabolized

Sample CC(C)c1nc(CN(C)C(=O)N[C@H](C(=O)N[C@@H](Cc2ccccc2)C[C@H](O)[C@H](Cc2ccccc2)NC(=O)OCc2cncs2)C(C)C)cs1 — what was its Bacterial Biotransformation?
Compound NOT metabolized
